Tested on: Alopecurus myosuroides (ALOMY)
Assay: Pre-emergence herbicidal activity, glasshouse pot test
Type: in vivo
Settings: Alopecurus myosuroides, 312 h; Rate 250 g/ha; pre-emergence spray; evaluated after 13 days; read-out: Pre-emergence activity ALOMY (100=total damage to plant; 0=no damage to plant)
Outcome: t for pest or weed control at 250 g/ha of at least 60%; f for anything lower.

Example results:
>>> category_label("CCc1ccc(Oc2cnc3cc(F)ccc3n2)cc1C1=C(O)C(C)(C)OC(C)(C)C1=O [Example A-172]")
"t"
>>> category_label("CCc1ccc(Oc2ccc(Cl)c(C)c2)cc1C1=C(O)C(C)(C)OC(C)(C)C1=O [Example A-184]")
"f"
>>> category_label("CCc1ccc(Oc2ccc(Cl)c(F)c2)cc1C1=C(O)CCCC1=O [Example A-68]")
"f"
>>> category_label("CCc1ccc(Oc2nc3cc(Cl)ccc3s2)cc1C1=C(O)CC2(CCOCC2)CC1=O [Example A-308]")
"t"
>>> category_label("CCc1ccc(Oc2ccc(C(F)(F)F)cc2Cl)cc1C1=C(O)CC2(CCOCC2)CC1=O [Example A-271]")
"t"
>>> category_label("CCc1ccc(Oc2nc3ccccc3o2)cc1C1=C(O)C(C)(C)OC(C)(C)C1=O [Example A-118]")
"t"

Here's the next entry for you.
**Q:** Does the reported pest or weed control at 250 g/ha for CCc1ccc(Oc2nc(F)c(Cl)c(Cl)c2Cl)cc1C1=C(O)C(C)(C)OC(C)(C)C1=O [Example A-60] fall at or above the 60% mark?
**A:** f
